test: inhibitors of poly I:C-induced TLR3 signaling, primary screen, cell-based, poly I:C stimulus, luciferase, 10K MLSCN set (AID 602277); settings: HEK293-TLR3 RL24 IRF3 luciferase reporter, at 10 µM
Activity calls are given as the source filed them.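 The calls were made as follows: active = inhibition of the reporter signal at or above 50%; inactive = inhibition below 50%.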
Respond using exactly one of the listed classes: label 1 for active, label 0 for inactive

Record excerpt, results attached:
[
  {
    "MOLECULE": "OC[C@H]1O[C@@H](n2cnc3c(NC4CCCC4)ncnc32)[C@H](O)[C@@H]1O",
    "CLASSIFICATION": "label 0"
  },
  {
    "MOLECULE": "COc1ccc2cnn(-c3ccccc3C)c(=O)c2c1OC",
    "CLASSIFICATION": "label 0"
  },
  {
    "MOLECULE": "CCC(C(=O)OCCN(CC)CC)c1ccccc1 (stereo unspecified)",
    "CLASSIFICATION": "label 0"
  }
]

-- ask Identify the outcome logged in this assay for the molecule shown: O=c1cc(NCc2ccccc2)nc2n1CCCS2
-- reply label 0

-- ask Identify the outcome logged in this assay for the molecule shown: CC(C)(C)OC(=O)N1CC=C2C(C#N)=C(N)C(C#N)(C#N)[C@H](c3cccnc3)[C@H]2C1
-- reply label 0

-- ask Identify the outcome logged in this assay for the molecule shown: CN1CCN(CCCN2c3ccccc3Sc3ccc(C(F)(F)F)cc32)CC1
-- reply label 0

----------
assay: DUSP6 inhibitors restoring Erk phosphorylation by chemical complementation, primary imaging in DUSP6-transfected HeLa (AID 609); details: HeLa MKP-3 transfected, phospho-Erk imaging KS statistic; measured here: cell density z-score; at 10 µM; cells stimulated with TPA for 15 min
VALUE TYPE: z-score
Just the number.

Example results:
[
  {
    "COMPOUND": "O=[N+]([O-])c1cccc2cn[nH]c12",
    "z-score": 2.27
  },
  {
    "COMPOUND": "Cc1c(/C(O)=C2/C(=O)C(=O)N(CCN3CCOCC3)C2c2cccnc2)cnn1-c1ccccc1 (stereo not drawn)",
    "z-score": 0.15
  },
  {
    "COMPOUND": "COc1cccc(C2/C(=C(/O)c3cnn(-c4ccccc4)c3C)C(=O)C(=O)N2CCN(C)C)c1OC (stereo not drawn)",
    "z-score": -0.295
  },
  {
    "COMPOUND": "CCSc1nc(N)c(C#N)c(-c2ccccc2Cl)c1C#N",
    "z-score": -2.31
  },
  {
    "COMPOUND": "Cc1cc(NC(=O)CSc2nc(-c3cccnc3)ccc2C#N)no1",
    "z-score": 0.472
  },
  {
    "COMPOUND": "COn1c(=S)[nH]c2ccccc2c1=O",
    "z-score": -1.19
  },
  {
    "COMPOUND": "COC(=O)COn1c(SCC(=O)OC)nc2ccccc2c1=O",
    "z-score": -1.82
  },
  {
    "COMPOUND": "CC(C)CCNC(=O)[C@H](CC(C)C)NC(=O)[C@H]1O[C@@H]1C(=O)O",
    "z-score": 0.0708
  },
  {
    "COMPOUND": "Cc1occc1C(=O)OCC(=O)Nc1ccc(F)cc1",
    "z-score": -1.12
  },
  {
    "COMPOUND": "COc1cccc2c(=O)c(SC(F)(F)C(F)C(F)(F)F)c(C)[nH]c12 (stereo not drawn)",
    "z-score": 0.112
  }
]

-- ask Recall and state the measured z-score for CN(C)CCOc1ccccc1Cc1ccccc1 .
-- reply -0.59

-- ask Recall and state the measured z-score for Cn1ncc2nnn(-c3ccccc3)c(=O)c21 .
-- reply -0.32

----------
molecular target: Voltage-gated potassium channel subunit beta-2 (Rattus norvegicus); assay: KvBeta positive modulators, primary screen, biochemical, NADPH fluorescence (AID 623); conditions: Recombinant KvBeta, NADPH fluorescence decrease slope, 10 min; at 10 µM; stronger effect = lower value;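 also: fluorescence intensity change per second fitted from 20 to 320 s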
Collected NADPH fluorescence slope values appear next to each entry.
Just the number.

[
  {
    "COMPOUND": "COc1ccc(-c2onc(C)c2-c2ccccc2)c(O)c1",
    "TESTED SYSTEM": "Voltage-gated potassium channel subunit beta-2 (Rattus norvegicus)",
    "NADPH fluorescence slope": "-4.2e-06"
  },
  {
    "COMPOUND": "CC1(C)Cc2c(sc3c2C2=NCCN2C=N3)CO1",
    "TESTED SYSTEM": "Voltage-gated potassium channel subunit beta-2 (Rattus norvegicus)",
    "NADPH fluorescence slope": "-8.5e-06"
  },
  {
    "COMPOUND": "CC1CN(c2oc(-c3cccs3)nc2C#N)CC(C)O1 (stereo not drawn)",
    "TESTED SYSTEM": "Voltage-gated potassium channel subunit beta-2 (Rattus norvegicus)",
    "NADPH fluorescence slope": "4e-07"
  },
  {
    "COMPOUND": "OCC(O)CN1CCN(c2ccccc2)CC1 (stereo not drawn)",
    "TESTED SYSTEM": "Voltage-gated potassium channel subunit beta-2 (Rattus norvegicus)",
    "NADPH fluorescence slope": "-1.7e-06"
  },
  {
    "COMPOUND": "CC(C)Cn1nc(NC(=O)C(C)(C)C)c2cc3ccccc3nc21",
    "TESTED SYSTEM": "Voltage-gated potassium channel subunit beta-2 (Rattus norvegicus)",
    "NADPH fluorescence slope": -0.000242
  }
]

-- ask Recall and state the measured NADPH fluorescence slope for CC(=O)OCC(=O)[C@H]1CC[C@H]2[C@@H]3CC=C4C[C@@H](O)CC[C@]4(C)[C@H]3CC[C@]12C .
-- reply -6.8e-05

-- ask Recall and state the measured NADPH fluorescence slope for COc1cc(NC(=O)NC(C)(C(F)(F)F)C(F)(F)F)cc(OC)c1OC .
-- reply -6.8e-05

-- ask Recall and state the measured NADPH fluorescence slope for O=C(O)c1nsc(Cl)c1Cl .
-- reply -3.3e-06

----------
assay: DUSP6 inhibitors restoring Erk phosphorylation by chemical complementation, primary imaging in DUSP6-transfected HeLa (AID 609); conditions: HeLa MKP-3 transfected, phospho-Erk imaging KS statistic; measured here: cell density z-score; at 10 µM; cells stimulated with TPA for 15 min
Give yes when the value for z-score is at least 0.6. Give no when it is less.

Record excerpt, results attached:
[
  {
    "COMPOUND": "CNC(=O)CC(C(=O)O)c1ccc(OC(C)C)cc1 (stereo unspecified)",
    "CLASSIFICATION": "no"
  },
  {
    "COMPOUND": "N/C(CCN1CCOCC1)=N/O",
    "CLASSIFICATION": "yes"
  },
  {
    "COMPOUND": "CCCc1nn(C)c2c1C(c1cccnc1)C(C#N)=C(N)O2 (stereo unspecified)",
    "CLASSIFICATION": "yes"
  },
  {
    "COMPOUND": "CCOC(=O)CC(=O)CSc1nc(N)c(C#N)c(-c2ccc(Cl)cc2)c1C#N",
    "CLASSIFICATION": "yes"
  }
]

Now consider a different compound.
-- ask Decide: z-score of O=c1c2c3c(sc2n2cnnc2n1Cc1ccccc1)CN(Cc1ccccc1)CC3 >= 0.6?
-- reply no

----------
assay: inhibitors of E-selectin induction by TNFa, primary screen, imaging, HUVEC, immunofluorescence, MLSMR starter and 10KST1 sets (AID 487); settings: HUVEC TNFalpha-induced E-selectin immunofluorescence imaging, at 2 µM; stronger effect = higher value;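 also: signal is fraction of cell area covered by stained E-selectin grains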
Give yes when the value for inhibition is at least -40%. Give no when it is less.

Record excerpt, results attached:
[
  {
    "MOLECULE": "CCOC(=O)c1c(C)cccc1OCC(N)=O",
    "CLASSIFICATION": "yes"
  },
  {
    "MOLECULE": "CCCOC(=O)CSC1=C(C#N)C(c2ccccc2OC)C(C#N)C(=O)N1 (centres undefined)",
    "CLASSIFICATION": "no"
  },
  {
    "MOLECULE": "CCOC(=O)c1[nH]c2cc3c(cc2c1NC(=O)CN1CCC(C)CC1)OCO3",
    "CLASSIFICATION": "yes"
  },
  {
    "MOLECULE": "CCCCC(C(=O)O)C(C)CC(=O)Nc1cccc(C(=O)O)c1 (centres undefined)",
    "CLASSIFICATION": "no"
  },
  {
    "MOLECULE": "COCCCNC(=O)c1c(N)n(/N=C/c2cccs2)c2nc3ccccc3nc12",
    "CLASSIFICATION": "yes"
  }
]

-- ask Decide: inhibition of O=S(=O)(c1cccc2cnccc12)N1CCCNCC1 >= -40%?
-- reply yes

-- ask Decide: inhibition of CCCCC1CC1C(=O)Nc1ccc(OC)c(OC)c1 (centres undefined) >= -40%?
-- reply no

-- ask Decide: inhibition of CC[N+](C)(C)Cc1ccccc1Br >= -40%?
-- reply no
